The reported numbers originate from patent US20260028354A1.

- Study target: ER in MCF-7 cells (Homo sapiens (Human))
- Sequence (P03372 whole entry): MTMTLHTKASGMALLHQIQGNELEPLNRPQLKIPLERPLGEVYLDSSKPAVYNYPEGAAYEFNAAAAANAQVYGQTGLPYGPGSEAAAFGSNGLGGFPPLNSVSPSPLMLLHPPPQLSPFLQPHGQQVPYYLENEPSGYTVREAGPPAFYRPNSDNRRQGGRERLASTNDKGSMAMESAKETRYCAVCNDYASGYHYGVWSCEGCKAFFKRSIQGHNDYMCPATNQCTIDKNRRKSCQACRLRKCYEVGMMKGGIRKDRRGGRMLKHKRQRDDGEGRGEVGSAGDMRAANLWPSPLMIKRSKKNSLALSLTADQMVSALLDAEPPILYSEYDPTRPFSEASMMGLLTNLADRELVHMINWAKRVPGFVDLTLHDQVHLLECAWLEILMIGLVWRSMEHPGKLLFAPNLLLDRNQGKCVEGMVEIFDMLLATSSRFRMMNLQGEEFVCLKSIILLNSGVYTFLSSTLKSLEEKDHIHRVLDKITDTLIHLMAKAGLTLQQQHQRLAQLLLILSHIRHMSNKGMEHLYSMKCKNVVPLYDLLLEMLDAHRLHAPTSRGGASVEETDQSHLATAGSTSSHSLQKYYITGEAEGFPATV
- Assay procedure: In-cell Western (ICW) ER degradation assay in MCF-7 cells
- Assay type: cell-based
- Test context: MCF7, MCF-7, maximal ER degradation, 16 hrs treatment; read-out: MCF7 Dmax
Measured parameter: Dmax

**Query** Item under review: "O=C1CC[C@H](N2Cc3c(ccc4c3OC[C@H]3CN(CC5CCN(c6ccc([C@@H]7c8ccc(O)cc8CC[C@@H]7c7ccccc7)cc6)CC5)CCN43)C2=O)C(=O)N1" . Reported Dmax?
**Result** > 75%

**Query** Item under review: O=C1CC[C@H](N2Cc3cc4c(cc3C2=O)OC[C@@H]2CN(CC3COC5(C3)CN(c3ccc([C@H]6c7ccc(O)cc7CC[C@H]6c6ccccc6)cc3)C5)CCN42)C(=O)N1 (single isomer, unassigned) . Reported Dmax?
**Result** 50 to 75%

**Query** Item under review: COc1cc(N2CCC3(CC2)CC(CN2CCN4c5cc6c(cc5OC[C@@H]4C2)C(=O)N([C@H]2CCC(=O)NC2=O)C6)CO3)ccc1[C@@H]1c2ccc(O)cc2CC[C@@H]1c1ccccc1 (stereo partly drawn) . Reported Dmax?
**Result** 25 to 50%
